The origin of these recorded values is the supplement of paper PMC10065799.

The following sequences are shown together with reported phosphorylation enrichment values.
# Measured On: Jak2 (UniProt O60674)
# Sequence (O60674 whole entry, looked up): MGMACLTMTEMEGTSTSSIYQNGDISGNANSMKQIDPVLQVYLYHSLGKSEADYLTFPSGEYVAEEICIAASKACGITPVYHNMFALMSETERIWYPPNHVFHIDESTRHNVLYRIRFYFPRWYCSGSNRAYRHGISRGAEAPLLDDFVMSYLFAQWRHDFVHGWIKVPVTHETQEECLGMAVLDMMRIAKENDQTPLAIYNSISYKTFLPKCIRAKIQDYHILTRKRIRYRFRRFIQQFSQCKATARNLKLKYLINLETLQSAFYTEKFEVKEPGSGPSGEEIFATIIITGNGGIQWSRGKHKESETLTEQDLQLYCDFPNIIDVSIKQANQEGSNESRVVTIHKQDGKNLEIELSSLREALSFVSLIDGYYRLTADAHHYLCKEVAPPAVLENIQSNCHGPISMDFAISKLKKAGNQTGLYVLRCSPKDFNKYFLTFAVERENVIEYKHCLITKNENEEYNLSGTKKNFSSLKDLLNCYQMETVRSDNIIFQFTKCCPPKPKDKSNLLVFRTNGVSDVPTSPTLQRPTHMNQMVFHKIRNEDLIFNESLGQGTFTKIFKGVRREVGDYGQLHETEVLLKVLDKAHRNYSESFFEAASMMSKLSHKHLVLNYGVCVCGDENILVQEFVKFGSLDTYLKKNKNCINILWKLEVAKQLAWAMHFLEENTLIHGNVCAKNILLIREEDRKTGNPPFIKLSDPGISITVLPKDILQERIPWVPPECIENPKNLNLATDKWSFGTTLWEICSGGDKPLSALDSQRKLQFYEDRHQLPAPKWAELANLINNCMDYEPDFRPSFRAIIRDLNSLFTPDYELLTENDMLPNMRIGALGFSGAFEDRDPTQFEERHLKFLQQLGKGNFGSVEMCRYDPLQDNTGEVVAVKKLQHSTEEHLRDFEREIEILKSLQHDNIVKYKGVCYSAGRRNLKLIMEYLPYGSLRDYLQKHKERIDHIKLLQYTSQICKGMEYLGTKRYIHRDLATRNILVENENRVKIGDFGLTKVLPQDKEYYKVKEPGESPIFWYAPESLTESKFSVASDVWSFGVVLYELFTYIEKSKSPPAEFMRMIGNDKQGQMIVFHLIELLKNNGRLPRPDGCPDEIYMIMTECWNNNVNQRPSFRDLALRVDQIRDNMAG
# Procedure Summary: phosphorylation enrichment, bacterial display (enrichment ratio); higher = better substrate or ligand; peptides without Tyr show the background;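 note: 11-residue human phosphosite peptides and single-mutation variants displayed on the E. coli surface, counted by deep sequencing, each peptide's frequency after selection divided by its frequency in the unselected input library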;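 note: frequency after pTyr selection over input frequency; kinase dosed for 20-30% of maximal phosphorylation in three min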
I only need the number, thanks.

>  <Primary Sequence>
LLIVEYAKYGS [RET_Y806]

>  <phosphorylation enrichment>
1.82

$$$$
>  <Primary Sequence>
GQLIFYAPPEW [CNTN6_Y315]

>  <phosphorylation enrichment>
1.5

$$$$
>  <Primary Sequence>
QDRTFYESVRT [SPEN_Y633_YF]

>  <phosphorylation enrichment>
0.564

$$$$
>  <Primary Sequence>
NDEDIYKGLPD [VAV3_Y141]

>  <phosphorylation enrichment>
0.947

$$$$
>  <Primary Sequence>
SLDHPYEKPRK [INAVA_Y333]

>  <phosphorylation enrichment>
0.436

$$$$
>  <Primary Sequence>
IRDENYGEGSS [ACO2_Y665_G661R]

>  <phosphorylation enrichment>
0.733

$$$$
>  <Primary Sequence>
IKAGAYDFPSL [CAMK2A_Y230_P235L]

>  <phosphorylation enrichment>
0.603

$$$$
>  <Primary Sequence>
QLHREYCLSPR [HJURP_Y445]

>  <phosphorylation enrichment>
0.877

$$$$
>  <Primary Sequence>
RNLLIYTEFGK [HGD_Y166_G161R]

>  <phosphorylation enrichment>
0.997

$$$$
>  <Primary Sequence>
IIGNGYYFRVF [MYBPC3_Y1135]

>  <phosphorylation enrichment>
1.46

$$$$

Entry LQTFRYHGLSM [PDHA1_Y289_H292L_YF] ; phosphorylation enrichment = 0.732

Entry SVAVPYEPPEV [TP53_Y220_V217A] ; phosphorylation enrichment = 1.1

Entry SLESAYPEVSQ [TTF1_Y357_G360V] ; phosphorylation enrichment = 1.09
